test system: SR leukemia
Would you mind answering with one of these outcomes? label 1 for active, label 0 for inactive

Reference set, count: 2
CC(C)(C)NC/C(=C\c1ccccc1)C(=O)c1ccccc1 ... label 0
N#Cc1c(N)nc(N2CCSCC2)c(C#N)c1-c1ccc(O)cc1 ... label 0

Q: Outcome? CCC[CH2][Sn]([CH2]CCC)([O]C(=O)c1cc(F)cc(F)c1)[O][Sn]([CH2]CCC)([CH2]CCC)[O]C(=O)c1cc(F)cc(F)c1
Ans: label 1

Q: Outcome? CCOC(=O)c1cc(-c2ccc(OC)c(OC)c2)[nH]c1N/N=C/c1c(Cl)cccc1Cl
Ans: label 1

Q: Outcome? CCCCCCN(C)Cc1ccc(OCCOc2ccc(CN(C)CCCCCC)cc2)cc1
Ans: label 0

Q: Outcome? CCc1nc2cc(/C=C/C(=O)NO)ccc2c(=O)n1CCc1ccc(F)cc1
Ans: label 0

Q: Outcome? CCCN1C(=O)/C(=C/c2ccc(O)cc2)SC1=Nc1ccc(OC)cc1
Ans: label 0

Q: Outcome? COC(=O)c1ccc2c(c1)c1c(C)c3ccncc3c(C)c1n2C
Ans: label 1

Q: Outcome? COc1cc(-c2ccc(NC(=O)NC3CC3)c(OC)c2)ccc1NC(=O)NC1CC1
Ans: label 0

Q: Outcome? O=C(Nc1cccc(Cl)c1)c1cc(N=Nc2ccc([N+](=O)[O-])cc2Cl)ccc1O
Ans: label 0
